Experiment: Solubility of solid state forms in solvents (gravimetric or solvent addition)
Type: physicochemical
Conditions: organic solvent or mixture, thermodynamic from solid; cyclohexane, RT; read-out: Solubility
Procedure: The solubility of certain solid state forms of Compound I was determined in various solvents by either gravimetric solubility or solvent addition. About 25 mg of compound was weighed into vials. Approximately 5 vol. (0.125 mL) of solvent was added to the solids and the mixtures stirred at the designated temperature (RT or 50° C.). Solutions were noted and an additional 0.125 mL of solvent was added to the slurries. […] If a thicker slurry was noted, 0.25 mL of solvent was added (total volume 0.5 mL). […]
endpoint-name: solubility

### Prompt Please give measured solubility of the following entry: CCOc1ccccc1-c1ccc(N2CCN(C(=O)C3(C(F)(F)F)CCC3)C[C@H]2CC)c(C(=O)N[C@@H]2CN3CCC2CC3)n1.O=C(O)/C=C\C(=O)O [Pattern C Maleate]
### Response < 3000 µg/mL
